# measured-target: creatine kinase (CK) in human serum (Homo sapiens)
# Construct: Five fresh human serum samples were used; from tissue; host or cells: fresh human serum
# Sequence (P06732 whole entry): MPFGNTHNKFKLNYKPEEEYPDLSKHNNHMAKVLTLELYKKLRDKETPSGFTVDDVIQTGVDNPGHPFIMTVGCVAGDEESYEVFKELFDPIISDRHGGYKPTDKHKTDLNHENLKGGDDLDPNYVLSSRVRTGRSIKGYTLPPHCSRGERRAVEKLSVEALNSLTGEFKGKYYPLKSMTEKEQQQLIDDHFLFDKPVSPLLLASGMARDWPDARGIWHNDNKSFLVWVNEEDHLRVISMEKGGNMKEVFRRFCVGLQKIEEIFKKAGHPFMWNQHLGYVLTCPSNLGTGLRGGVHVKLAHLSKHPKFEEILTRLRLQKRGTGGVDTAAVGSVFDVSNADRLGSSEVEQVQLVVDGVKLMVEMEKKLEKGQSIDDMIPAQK
# test-name: Inhibitory effect of oxidized products of SH compounds on CK activity (HK/G6PDH UV method, NAC 26 mM as reactivator)
# Type: biochemical
# details: Sample 3; 5 mM SH compound oxidized product, NAC 26 mM, 37° C.
assay-readout: CK activity value (IU/l.)

1. c1ccc(SSc2ccccc2)cc1 [Thiophenol oxidized product] | 55
2. Nc1cc(O)nc(SSc2nc(N)cc(O)n2)n1 [AHMP oxidized product] | 106
3. Nc1nc(SSc2nc(N)nc3c2ncn3[C@@H]2O[C@H](CO)[C@@H](O)[C@H]2O)c2ncn([C@@H]3O[C@H](CO)[C@@H](O)[C@H]3O)c2n1 [AMPR oxidized product] | 0
4. OC[C@H]1O[C@@H](SS[C@@H]2O[C@H](CO)[C@@H](O)[C@H](O)[C@H]2O)[C@H](O)[C@@H](O)[C@@H]1O [TDG oxidized product] | 102
5. O=c1ccnc(SSc2nccc(=O)[nH]2)[nH]1 [2-Thiouracil oxidized product] | 106
6. O[C@@H]1CSSC[C@H]1O (relative stereo) [DTT oxidized product] | 108
7. O=S(=O)(O)CCSSCCS(=O)(=O)O [2MES oxidized product] | 114
8. OCCSSCCO [2ME oxidized product] | 113
9. CC(=O)N[C@@H](CSSC[C@H](NC(C)=O)C(=O)O)C(=O)O [NAC oxidized product] | 87
10. OCC(O)CSSCC(O)CO (stereo not shown) [TG oxidized product] | 112

FYI, the data here is from patent US5716797A.
